Known logD of a selection of compounds
- ASSAY: Partition coefficient was determined in octanol-phosphate at pH 6.5
- Format: physicochemical
- STATED CONDITIONS: octanol/phosphate buffer
OBSERVABLE: logD

1. COc1cccc2c1C(=O)c1c(O)c3c(c(O)c1C2=O)C[C@@](O)(C(=O)CO)C[C@@H]3OC1CC(N2CCOCC2)C(O)C(C)O1 (some centres not stated)	1.42
2. COc1cccc2c1C(=O)c1c(O)c3c(c(O)c1C2=O)C[C@@](O)(C(=O)CO)C[C@@H]3OC1CC2C(OC3COCC(C#N)N32)C(C)O1 (some centres not stated)	2.29

====

Known logD of a selection of compounds
- ASSAY: Partition coefficient was determined in octanol-phosphate at pH 7.4
- Assay type: physicochemical
- STATED CONDITIONS: octanol/phosphate buffer
OBSERVABLE: logD

1) COc1cccc2c1C(=O)c1c(O)c3c(c(O)c1C2=O)C[C@@](O)(C(=O)CO)C[C@@H]3OC1CC(N2CCOCC2)C(O)C(C)O1 (some centres not stated)	1.73
2) COc1cccc2c1C(=O)c1c(O)c3c(c(O)c1C2=O)C[C@@](O)(C(=O)CO)C[C@@H]3OC1CC2C(OC3COCC(C#N)N32)C(C)O1 (some centres not stated)	2.41

====

- ASSAY: Partition coefficient was determined in octanol-phosphate at pH 6.0
- Type: physicochemical
- STATED CONDITIONS: octanol/phosphate buffer
OBSERVABLE: logD

1) COc1cccc2c1C(=O)c1c(O)c3c(c(O)c1C2=O)C[C@@](O)(C(=O)CO)C[C@@H]3OC1CC(N2CCOCC2)C(O)C(C)O1 (some centres not stated)	0.96
2) COc1cccc2c1C(=O)c1c(O)c3c(c(O)c1C2=O)C[C@@](O)(C(=O)CO)C[C@@H]3OC1CC2C(OC3COCC(C#N)N32)C(C)O1 (some centres not stated)	2.4

====

- System: L1210
- ASSAY: Compound was evaluated for drug concentration for 50% inhibition of actively growing L1210 cells in culture for the inhibition of incorporation of [3H]thymidine in the DNA(isomeric ratio A/B = 76:12)
- Type: functional
- STATED CONDITIONS: Mus musculus, read-out: ED50 (the source's name)
pEC50: −log10 of the molar value.
OBSERVABLE: pEC50

1) COc1cccc2c1C(=O)c1c(O)c3c(c(O)c1C2=O)C[C@@](O)(C(C)=O)C[C@@H]3OC1CC2C(OC3COCC(C#N)N32)C(C)O1 (stereo partly specified)	6.38
